target-under-test: human TLR7 (wild type sequence) (Homo sapiens)
Construct: expressed in transfected cells; host or cells: HEK293
Sequence (Q9NYK1 27-1049): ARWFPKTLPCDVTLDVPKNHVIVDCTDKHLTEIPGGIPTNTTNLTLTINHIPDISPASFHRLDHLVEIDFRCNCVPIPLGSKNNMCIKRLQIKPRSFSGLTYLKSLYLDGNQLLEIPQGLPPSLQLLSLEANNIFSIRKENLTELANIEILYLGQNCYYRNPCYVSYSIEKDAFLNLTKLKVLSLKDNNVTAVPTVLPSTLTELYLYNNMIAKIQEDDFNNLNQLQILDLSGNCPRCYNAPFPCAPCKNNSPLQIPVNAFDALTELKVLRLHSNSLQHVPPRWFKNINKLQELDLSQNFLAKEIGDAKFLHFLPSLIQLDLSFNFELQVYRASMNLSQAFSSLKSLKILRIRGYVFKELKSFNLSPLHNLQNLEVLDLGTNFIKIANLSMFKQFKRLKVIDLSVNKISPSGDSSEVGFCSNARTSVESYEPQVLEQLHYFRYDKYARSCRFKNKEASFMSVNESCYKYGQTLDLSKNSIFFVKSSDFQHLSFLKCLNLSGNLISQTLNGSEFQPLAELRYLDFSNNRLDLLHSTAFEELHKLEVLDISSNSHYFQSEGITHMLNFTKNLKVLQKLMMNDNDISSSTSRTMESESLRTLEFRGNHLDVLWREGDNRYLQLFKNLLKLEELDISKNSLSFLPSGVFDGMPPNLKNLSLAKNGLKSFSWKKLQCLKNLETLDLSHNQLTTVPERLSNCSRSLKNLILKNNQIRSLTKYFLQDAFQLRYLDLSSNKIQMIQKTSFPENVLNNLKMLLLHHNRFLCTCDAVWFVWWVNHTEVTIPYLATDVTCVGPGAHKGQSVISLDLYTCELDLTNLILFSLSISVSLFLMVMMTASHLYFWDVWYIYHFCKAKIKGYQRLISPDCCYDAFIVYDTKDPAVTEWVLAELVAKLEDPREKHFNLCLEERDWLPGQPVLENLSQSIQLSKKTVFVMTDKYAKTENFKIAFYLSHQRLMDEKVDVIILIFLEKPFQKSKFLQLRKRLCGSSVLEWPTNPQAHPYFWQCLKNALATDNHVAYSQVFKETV
experimental-protocol: TLR7 cellular NFκB-luc reporter assay, wild type TLR7
Assay type: cell-based
Set-up: unit not given here
details: lowest effective concentration, wild type TLR7 (compounds 74 onward)
experimental-readout: TLR 7 wt LEC

> print(dat)
                                 mol.smiles                         target.under.test  value.reported
1    CCCCNc1nc(N)ncc1OCCCc1ccc(C(F)(F)F)cc1  human TLR7 (wild type sequence) (Homo sapiens)          10.640
2        CCCCNc1nc(N)ncc1OCCCc1ccc(OC)cc1OC  human TLR7 (wild type sequence) (Homo sapiens)           0.573
3        CCCCNc1nc(N)ncc1OCc1nc2ccccc2[nH]1  human TLR7 (wild type sequence) (Homo sapiens)           0.032
4      CCCC[C@H](CCO)Nc1nc(N)ncc1OCc1ccccc1  human TLR7 (wild type sequence) (Homo sapiens)           2.140
5  CCCCNc1nc(N)ncc1OCc1cc(OC2Cc3ccccc3C2)c(OC)cn1  human TLR7 (wild type sequence) (Homo sapiens)           0.187

Data credit: patent US11541050B2
